Measured kon, listed per entry for reference.
Target: T1, PD1-hFc (human, UniProt Q15116 25-170)
T1 construct: extracellular domain; also called PD1-hFc protein; Human PD-1-Fc (S1420, Y-Biologics)
T1 sequence (Q15116 other isoform, or with tags, fused parts or gaps limits assumed): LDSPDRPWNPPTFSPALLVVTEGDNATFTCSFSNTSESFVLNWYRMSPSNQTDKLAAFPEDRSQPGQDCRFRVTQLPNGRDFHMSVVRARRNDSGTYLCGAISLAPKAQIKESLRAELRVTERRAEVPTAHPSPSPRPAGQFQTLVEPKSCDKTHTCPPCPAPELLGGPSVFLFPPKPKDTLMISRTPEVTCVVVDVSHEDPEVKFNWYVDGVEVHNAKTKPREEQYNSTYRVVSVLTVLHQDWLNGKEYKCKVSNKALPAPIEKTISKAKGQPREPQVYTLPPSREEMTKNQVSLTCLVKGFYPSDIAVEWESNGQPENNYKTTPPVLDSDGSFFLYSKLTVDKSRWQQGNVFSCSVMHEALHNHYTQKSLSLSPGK
Experiment: SPR ProteOn XPR36, PD1-hFc immobilised, antibody as analyte
readout.name: kon (M⁻¹ s⁻¹)

* PD1-45D6(A/5B5) (antibody, V domains shown, scFv-phage in the screening ELISA; whole IgG in the other assays; also called 45D6-5B5; PD1 45D6 5B5) VH: QVQLVESGGGVVQPGRSLRLSCAASGFTFRTYAMHWVRQAPGKGLEWVAVISYDGNDKYYADSVKGRFTISRDNSKNTLYLQMNSLRAEDTAVYYCVPTTFEYWGQGTLVTVSS VL: DIVMTQTPLSLPVMPGEAASISCRSSQSLLDSEDGNTYLDWYLQKPGQSPQLLIYTLSHRASGVPDRFSGSGSGTDFTLKISRVEADDVGIYYCMQRVEFPFTFGQGTKVEIK | 296000
* PD1-49A2(A/2A6) (antibody, V domains shown, scFv-phage in the screening ELISA; whole IgG in the other assays; also called 49A2-2A6; PD1 49A2 2A6) VH: QVQLVESGGGVVQPGRSLRLSCAASGFTFKYYAMHWVRQAPGKGLEWVTVISYDGQYKYYADSVKGRFTISRDNSKNTLYLQMNSLRAEDTAVYYCTTTTFDSWGQGTLVTVSS VL: DIVMTQTPLSLPVTPGEAASISCRSSQSLLDSEDGNTYLDWYLQRPGQSPQLLIYTLSHRASGVPGRFSGSGSGTEFNLRISRVEAEDVGIYYCMQRVEFPFTFGQGTKVEIK | 310000
* PD1-49A2(A/2B9) (antibody, V domains shown, scFv-phage in the screening ELISA; whole IgG in the other assays; also called 49A2-2B9; 49A2 (2B9)) VH: QVQLVESGGGVVQPGRSLRLSCAASGFTFLRYAMHWVRQAPGKGLEWVAVISYDGRYKYYADSVKGRFTISRDNSKNTLYLQMNSLRAEDTAVYYCTTTTFDSWGQGTLVTVSS VL: DIVMTQTPLSLPVTPGEAASISCRSSQSLLDSEDGNTYLDWYLQKPGQSPQLLIYTLSHRASGVPDRFSGSGSGTDFTLEISRVEAEDVGVYYCMQRRDFPFTFGQGTKVDIK | 377000
* PD1-49A2(A/1H8) (antibody, V domains shown, scFv-phage in the screening ELISA; whole IgG in the other assays; also called 49A2-1H8; PD1 49A2 1H8) VH: QVQLVESGGGVVQPGRSLRLSCAASGFTFKTYAMHWVRQAPGKGLEWVAVISYDGQHKYYADSVKGRFTISRDNSKNTLYLQMNSLRAEDTAVYYCTTTTFDSWGQGTLVTVSS VL: DIVMTQTPLSLPVTPGEPASISCRSSQSLLDRDGGHTYVDWYLQKPGQSPRLLIYTLSHRALGVPDRFSGSGSGTDFTLKISRVEADDVGLYYCMQRIEFPFTFGQGTKVEIK | 220000
* PD1-45D6 (antibody, V domains shown, scFv-phage in the screening ELISA; whole IgG in the other assays) VH: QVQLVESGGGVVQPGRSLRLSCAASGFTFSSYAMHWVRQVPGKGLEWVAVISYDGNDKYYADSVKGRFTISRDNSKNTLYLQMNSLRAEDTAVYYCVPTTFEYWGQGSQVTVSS VL: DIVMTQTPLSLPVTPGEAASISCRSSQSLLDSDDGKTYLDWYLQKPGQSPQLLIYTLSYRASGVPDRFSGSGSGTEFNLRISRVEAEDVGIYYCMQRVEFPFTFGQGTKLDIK | 270000
* PD1-49A2 (antibody, V domains shown, scFv-phage in the screening ELISA; whole IgG in the other assays; also called Parent 49A2) VH: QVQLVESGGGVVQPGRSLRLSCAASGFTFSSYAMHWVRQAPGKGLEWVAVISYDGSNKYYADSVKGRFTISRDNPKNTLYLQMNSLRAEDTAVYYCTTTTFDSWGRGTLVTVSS VL: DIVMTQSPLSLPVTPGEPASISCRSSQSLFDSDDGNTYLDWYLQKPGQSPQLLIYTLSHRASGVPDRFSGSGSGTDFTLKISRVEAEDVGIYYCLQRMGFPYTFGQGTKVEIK | 395000
* PD1-49A2(A/1B2) (antibody, V domains shown, scFv-phage in the screening ELISA; whole IgG in the other assays; also called 49A2-1B2; PD1 49A2 1B2) VH: QVQLVESGGGVVQPGRSLRLSCAASGFTFLRYAMHWVRQAPGKGLEWVAVISYDGQDKYYADSVKGRFTISRDNSKNTLYLQMNSLRAEDTAVYYCTTTTFDSWGRGTLVTVSS VL: DIVMTQTPLSLPVTPGEPASISCRSSQSLLDSDDGNTYLDWYLQKPGQSPQLLIYTLSHRASGVPDRFSGSGSGTEFNLRISRVEAEDVGIYYCMQRVEFPFTFGQGTKLEIK | 385000
* PD1-45D6(A/3D2) (antibody, V domains shown, scFv-phage in the screening ELISA; whole IgG in the other assays; also called 45D6-3D2; PD1 45D6 3D2) VH: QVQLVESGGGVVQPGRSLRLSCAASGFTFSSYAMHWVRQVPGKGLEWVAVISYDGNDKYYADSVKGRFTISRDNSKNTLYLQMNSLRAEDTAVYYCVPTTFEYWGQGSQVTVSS VL: DIVMTQTPLSLPVTPGEAASISCRSSQSLLDSEDGNTYLDWYLQKPGQSPQLLIYTLSHRASGVPDRFSGSGSGTDFTLKISRVEAEDVGIYYCMQRVEFPFTFGQGTKVEIK | 181000
* PD1-45D6(A/3H7) (antibody, V domains shown, scFv-phage in the screening ELISA; whole IgG in the other assays; also called 45D6-3H7; PD1 45D6 3H7) VH: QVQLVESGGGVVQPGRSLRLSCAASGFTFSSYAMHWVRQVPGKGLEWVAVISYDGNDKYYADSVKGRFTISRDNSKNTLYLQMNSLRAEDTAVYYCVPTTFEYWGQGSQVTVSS VL: DIVMTQTPLSLPVTPGEPASISCRSSQSLLDSDDGNTYLDWYLQKPGQSPQLLIYTLSHRASGVPGRFSGSGSGTEFNLRISRVEAEDVGIYYCMQRVEFPFTFGQGTKLEIK | 308000
* PD1-45D6(A/5B2) (antibody, V domains shown, scFv-phage in the screening ELISA; whole IgG in the other assays; also called 45D6-5B2; PD1 45D6 5B2) VH: QVQLVESGGGVVQPGRSLRLSCAASGFTFSFYAMHWVRQAPGKGLEWVAVISYDGNDKYYADSVKGRFTISRDNSKNTLYLQMNSLRAEDTAVYYCVPTTFEYWGQGTLVTVSS VL: DIVMTQTPLSPPVTPGEPASISCRSSQSLLDSDDGNTYLDWYLQKPGQSPQLLIYTLSHRASGVPDRFSGSGSGTDFTLEISRVEAEDVGVYYCMQRRDFPFTFGQGTKLDIK | 332000
